test: NCI Yeast Anticancer Drug Screen. Data for the sgs1 mgt1 strain (AID 161);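 note: 0% = growth of cultures given vehicle only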; details: S. cerevisiae sgs1 mgt1 strain, at 50.0 µM
Compounds without any hit were thinned out: in the full panel of roughly 79,000, 15% have a hit. The source made the active and inactive calls. Cut-off read from the data, not from the text of the source: active = growth inhibition above about 70%; inactive = the rest.
Labels: True for active, False for inactive

molecule | category_label
COc1ccccc1C1c2cc3c(cc2OC(C)(OC)C1C)OCO3 (stereo not given) | False
COc1ccc(NNc2ccc(OC)cc2)cc1 | False
CC(=O)OC1CCC2(C)C(CCC3(C)C2CC=C2C4CC(C)(C)CCC4(C)CCC23C)C1(C)C (stereo not given) | False
CCCCCCNC1=C(OC)C(=O)C(NCCCCCC)=C(OC)C1=O | False
CN(C)CN1CSC(=S)N(CN(C)C)C1 | False
COc1ccc2nccc(/C=C/CC3CCN(C(C)=O)CC3)c2c1 | True
COC1C(O)CC(OC2CC(OC3CC(O[C@@H]4C(=O)c5c(cc6cc(OC7CC(OC8CC(O)C(O)C(C)O8)C(O)C(C)O7)c(C)c(O)c6c5O)C[C@H]4[C@H](OC)C(=O)[C@@H](O)[C@@H](C)O)OC(C)C3O)OC(C)C2O)OC1C (stereo not given in full) | False
S=c1nc(-c2ccnc(-c3nc(=S)[nH][nH]3)c2)[nH][nH]1 | False
Cc1ccoc1 | False
CN1CCC2(CC1)C(=O)N(Cc1ccccc1)C(=O)C2c1ccccc1 (stereo not given) | False
Cc1ccc2c(c1)Cc1cc(C)ccc1-2 | False
Brc1ccc(-c2cc(-c3ccc4c(c3)OCO4)c(-c3cccs3)n2Cc2ccccc2)cc1 | False
CCOC(=O)CS | False
O=C(NCCc1[nH]nc2c1C(=O)C=C(Nc1ccccc1)C2=O)OCc1ccccc1 | False
CC12CC3CC(O)(C1)CC(O)(C3)C2 | False
CCOC(=O)C(NC(=O)CC)(Nc1ccccc1OC)C(F)(F)F (stereo not given) | False
O=C1C=C(c2ccccc2)C(=O)C(c2ccccc2)=C1c1ccccc1 | True
COC(=O)C1(c2ccccc2)Cc2ccccc2-c2ccccc21 (stereo not given) | False
CN(C)c1nc(=NCc2ccncc2)ss1 | False
CN(C)NC(=O)Nc1ccc2ccccc2c1 | False

====

Assay: NCI Yeast Anticancer Drug Screen. Data for the rad50 strain (AID 155);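 note: 0% = growth of vehicle-only cultures of the same strain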
Conditions: S. cerevisiae rad50 strain growth inhibition; at 50.0 µM
Protocol: Growth inhibition of yeast strains with defined genetic alterations is measured as a screen for potential anti-cancer activity. Selected strains with alterations in DNA damage repair or cell cycle control were exposed to compounds and growth inhibition was measured relative to vehicle treated controls. The strain used in this assay is rad50
Compounds without any hit were thinned out: in the full panel of roughly 79,000, 15% have a hit. Active and inactive are the calls of the source. Rule as the data show it: active = growth inhibition above about 70%; inactive = the rest.
Labels: active, inactive

compound | category_label
Cn1cnc([N+](=O)[O-])c1Cl | inactive
CC(C)O[Si](OC(C)C)(OC(C)C)OC(C)C | inactive
Cc1cc(Cl)ccc1OCC(=O)OCC(C)(C)[N+](=O)[O-] | inactive
O=C(NNC(=S)NCc1ccccc1)C12CC3CC(CC(C3)C1)C2 | inactive
CCOC(=O)c1ccc(-n2c(SCC)nc3sc(C)c(C)c3c2=O)cc1 | inactive
c1csc(C(NC2=NCCO2)C2CC2)c1 (configuration not stated) | inactive
Cc1cc(=O)n2c3c(cccc13)CCC2 | inactive
C[n+]1ccccc1/C=C/C=C/c1ccccc1 | inactive
C/C(=N\N)C1C(=O)c2ccccc2C1=O | inactive
O=C(N(CCc1ccc(O)cc1)Cc1ccc2c(c1)OCO2)C(F)(F)F | active
CCN(CC)CCOC(=O)c1ccc(N)c2ccccc12 | inactive
COc1ccccc1NC(=O)C(Cc1ccccc1)NC(C)=O (configuration not stated) | inactive
O=COC1CCCCCC1 | inactive
COc1ccc(N(CN2C(=O)CCC2=O)CS(=O)(=O)c2ccc(Cl)cc2)cc1 | inactive
Nc1nc2nc[n-]c2c(=O)[nH]1.[NH2-].[NH2-].[NH2-].[NH2-].[NH2-].[Ru+6] | inactive
O=C(OCC(OC(=O)c1ccccc1)C(OC(=O)c1ccccc1)C(OC(=O)c1ccccc1)c1nn[nH]n1)c1ccccc1 (configuration not stated) | active
O=C(O)C(CCl)(CCl)CCl | inactive
CC1=NN(C(=O)CC(=O)Nc2cccc(Cl)c2)C(=O)C1N=Nc1ccc(C(=O)O)cc1 (configuration not stated) | inactive
N#CC1=C(N)N(c2ccccc2)C(c2ccccc2)C1(C#N)C#N (configuration not stated) | inactive
ClCCCCC(Cl)(Cl)Cl | inactive
Nc1nnc2cc(Br)ccc2n1 | inactive
O=C(Nc1ccccc1SC(/C=C/NNC1=NC(c2ccccc2)C(c2ccccc2)=NN1)c1ccccc1)c1ccc(Cl)cc1Cl (configuration not stated) | inactive
COC(=O)C(=[N+]=[N-])C(=O)c1ccc([N+](=O)[O-])cc1 | inactive
OC12c3ccccc3C1(N1CCOCC1)CCCCC21OCCCO1 (configuration not stated) | inactive
CCOc1ccc(N)c([N+](=O)[O-])c1 | inactive
O=S(=O)(NC1c2ccccc2Oc2ccccc21)c1ccc2ccccc2c1 | inactive
CC(=O)Oc1c(C)n(C(C)=O)c2cc(Cl)ccc12 | inactive

====

assay: NCI Yeast Anticancer Drug Screen. Data for the bub3 strain (AID 167); conditions: S. cerevisiae bub3 mutant strain, at 50.0 µM
This is part of a sample that, as a whole, favours compounds with a hit. Of some 79,000 tested, about 15% had one in any assay. Active and inactive are the calls of the source. Rule as the data show it: active = growth inhibition above about 70%; inactive = the rest.
Labels: YES (active), NO (inactive)

smiles_entry | category_label
O=C1CSC(=S)N1/N=C/c1ccc([N+](=O)[O-])s1 | YES
CCCC(=O)C(=O)CCC | NO
CC(C)(C#N)OC(=O)c1cc([N+](=O)[O-])cc([N+](=O)[O-])c1 | NO
CC1(OC(=O)Nc2ccccc2)CCCCC1 | NO
CCN(CCNc1cc(OC)cc2cccnc12)c1ccccc1 | NO

====

assay: NCI Yeast Anticancer Drug Screen. Data for the cln2 rad14 strain (AID 165);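 note: 0% = growth equal to vehicle treated cultures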; conditions: S. cerevisiae cln2 rad14 strain, at 50.0 µM, stronger effect = higher value
The panel holds about 79,000 compounds, 15% with a hit somewhere; the sample as a whole holds those more often.

molecule | unit_abbreviation | growth inhibition
O=C(OCc1ccccc1CN1CCOCC1)c1ccccc1 | % | -11.9
O=C1c2ccccc2C(=O)N1c1ccc(C(F)(F)F)cc1[N+](=O)[O-] | % | -15.8
O=C1C2C(C(=O)N1c1ccccc1)C1(Br)c3ccccc3C2(Br)C2C(=O)N(c3ccccc3)C(=O)C21 (centres undefined) | % | -13.4
Nc1cc(Cl)c2c(c1)C(=O)c1ccccc1-2 | % | -5.3
CN(C)CC(CCC(=O)c1ccccc1)C(=O)c1ccccc1 (centres undefined) | % | -45.8
NC(=O)CN(CC(N)=O)CC(N)=O | % | -2.85
COC(OC)c1cccc2c1C1(O)CCC3(CC21)OCCCCO3 (centres undefined) | % | -11.6
CC12CCC3C(CCC4CCCCC43C)C1CC/C2=N\O (centres undefined) | % | 39.8
CC(=O)NC1=CC(=O)c2cc(C)cc(O)c2C1=O | % | 16.2

====

experiment: NCI Yeast Anticancer Drug Screen. Data for the mec2-1 strain (AID 157); conditions: S. cerevisiae mec2-1 strain, at 50.0 µM, stronger effect = higher value
Compounds without any hit were thinned out: in the full panel of roughly 79,000, 15% have a hit.
# reported growth inhibition; entries follow

compound | unit_abbreviation | growth inhibition
Cn1c(=O)c2ncn(CC(O)COc3ccccc3)c2n(C)c1=O (stereo unspecified) | % | 3.1
CCN(CC)CC(O)CN1CCCc2ccccc21 (stereo unspecified) | % | 1.5
CC1C=CC(C)N(c2nnnn2C)N1c1nnnn1C (stereo unspecified) | % | 9.75
CCCc1cc(=O)oc2c3c(c4c(c12)OC(C)(C)C=C4)OC(C)[C@H](C)[C@@H]3O (stereo partly specified) | % | 11.4
CCOC(=O)C1OC1(C)CC (stereo unspecified) | % | 1
CC(=O)Nc1cc2c(cc1C=O)OCO2 | % | 9.7
NC(=O)N/N=C/c1ccc(O)cc1 | % | -1.15
O=C1OC(Oc2ccccc2OC2OC(=O)c3ccccc32)c2ccccc21 (stereo unspecified) | % | 3.7
COc1ccc(N(Cc2ccc(C)o2)C(=S)Nc2ccccc2)cc1 | % | -5.4
CCCCS(=O)CC(CO)NC(=O)/C=C/c1c(C)[nH]c(=O)[nH]c1=O (stereo unspecified) | % | 22.8
CCOC(=O)C(=CN1CCCCCC1)C(=O)OCC | % | 13.2

====

assay: NCI Yeast Anticancer Drug Screen. Data for the rad50 strain (AID 155);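 note: 0% = growth of vehicle-only cultures of the same strain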; conditions: S. cerevisiae rad50 strain growth inhibition; at 50.0 µM; stronger effect = higher value
Compounds without any hit were thinned out: in the full panel of roughly 79,000, 15% have a hit.
quantity_kind: growth inhibition (%)

molecule | unit_abbreviation | reported_measurement
Cc1ccc(N=Nc2ccc(C)cc2NC(=O)Nc2cc(C)ccc2C)cc1 | % | -3.7
COc1cc(NS(=O)(=O)c2ccc(N)cc2)c2ncccc2c1 | % | 1.2
O=C(CCl)Nc1ccc(O)c2ccccc12 | % | 14.8
CCCC(O)CNCC1CCC2CCc3cccc1c32 (stereo not given) | % | -2.9
Cn1c(=O)c2[nH]c(CCNC(=O)c3ccccc3)nc2n(C)c1=O | % | 2.05
CC(=O)N1CCCCC1C/C(C)=N/O (stereo not given) | % | 3.55
COc1ccccc1C1CCCCC1OS(=O)(=O)c1ccc(C)cc1 (stereo not given) | % | -1.15
c1cnn(C23C4C5C6C4C2C6C53)c1 (stereo not given) | % | -24.4
N#CCCCCN1CCOCC1 | % | 10.3
Cc1cc(C)c([N+](=O)[O-])cc1[N+](=O)[O-] | % | 7.5
O=C(O)CC1CCCc2ccccc2C1CC(=O)O (stereo not given) | % | 5.25
S=C(SCc1nc(-c2ccc(Cl)cc2)no1)N1CCSCC1 | % | -1.9
FC(F)(F)c1cc(C2SCc3nc4ccccc4n32)cc(C(F)(F)F)c1 (stereo not given) | % | -5.25
O=C(N/N=C/c1cc(-c2ccccc2Cl)c(-c2ccccc2Cl)o1)c1ccncc1 | % | 14.5
CC1Cc2c(cc(N)nc2Br)NC1=O (stereo not given) | % | -10.6
COC(=O)C1=C(NC(=O)Nc2ccc([N+](=O)[O-])cc2)OC(C)(C)C1c1ccc(Cl)cc1 (stereo not given) | % | 23.6
Cc1cc(C)c[n+](-c2nc3c([O-])n(C)c(=O)n(C)c-3n2)c1 | % | -5.35
CN(C)c1ncnc2c1ncn2CC(O)CN (stereo not given) | % | -7.9
CCCC/C=C(\C)C(C)(C#N)C(=O)OCC (stereo not given) | % | -35.4
c1ccc(-c2ccc(-c3nnc(-c4ccc(-c5ccccc5)cc4)o3)cc2)cc1 | % | -0.95
